Target: human M4 muscarinic acetylcholine receptor (Homo sapiens, UniProt P08173)
Test: human FLIPR-based M4 PAM assay (calcium mobilization, CHO-K1 cells with human M4 receptor and Gαqi5)
Settings: inflection point (IP) of dose response curve, acetylcholine added at 20% of maximum response, read-out: M4 FLIPPR Hu IP
Procedure: In a typical experiment the M4 muscarinic acetylcholine receptor modulating activity of the compounds of the present invention was determined in accordance with the following experimental method. […] Following dye loading the cell plates are placed in a FLIPR Tetra instrument and while monitoring dye fluorescence (excitation 470-495 nM/emission 515-575 nM), 10 uL of test substance at increasing concentrations is added, and fluorescence values are recorded for 4 min. […]
endpoint: EC50 (nM)

The following compounds have reported results that may help.
COc1cc2ccc(-c3nc(C)ccc3-c3cnc(Cc4ccc(F)cc4)o3)cc2nn1 [Example 54] = 45
CN1Cc2ccc(-c3nc(C(F)F)ccc3-c3cnc(CC(C)(C)C(F)(F)F)o3)cc2C1=O [Example 26] = 63
Cc1nc2cc(-c3nc(C#N)ccc3-c3cnc(CCC(F)(F)F)o3)ccc2n1C [Example 113] = 118
CN1Cc2ncc(-c3nc4c(cc3-c3cnc(CC5CCCC5)o3)CCC4)cc2C1=O [Example 53] = 153
Cc1nc2cc(-c3ncc(F)cc3-c3cnc(CCC(C)(C)F)o3)ccc2n1C [Example 105] = 198
N#Cc1ccc(-c2cnc(CC3CC3)o2)c(-c2ccn3ccnc3c2)n1 [Example 63] = 94

a. CC(C)(Cc1ncc(-c2ccc(C#N)nc2-c2ccn3ccnc3c2)o1)C(F)(F)F [Example 28]
b. CN1Cc2ncc(-c3nc(C#N)ccc3-c3cnc(CC4(F)CCCC4)o3)cc2C1=O [Example 77]
c. CN1C(=O)c2cc(-c3nc4c(cc3-c3cnc(CC5(C)CCCC5)o3)CCC4)cnc2C1=O [Example 10]
Your job: order these 3 records by EC50, ascending. Labels, requested order.
b, a, c
(b: 45 nM, a: 122 nM, c: 209 nM)

* * *

Target: human M4 muscarinic acetylcholine receptor (Homo sapiens, UniProt P08173)
Sequence (P08173 1-479): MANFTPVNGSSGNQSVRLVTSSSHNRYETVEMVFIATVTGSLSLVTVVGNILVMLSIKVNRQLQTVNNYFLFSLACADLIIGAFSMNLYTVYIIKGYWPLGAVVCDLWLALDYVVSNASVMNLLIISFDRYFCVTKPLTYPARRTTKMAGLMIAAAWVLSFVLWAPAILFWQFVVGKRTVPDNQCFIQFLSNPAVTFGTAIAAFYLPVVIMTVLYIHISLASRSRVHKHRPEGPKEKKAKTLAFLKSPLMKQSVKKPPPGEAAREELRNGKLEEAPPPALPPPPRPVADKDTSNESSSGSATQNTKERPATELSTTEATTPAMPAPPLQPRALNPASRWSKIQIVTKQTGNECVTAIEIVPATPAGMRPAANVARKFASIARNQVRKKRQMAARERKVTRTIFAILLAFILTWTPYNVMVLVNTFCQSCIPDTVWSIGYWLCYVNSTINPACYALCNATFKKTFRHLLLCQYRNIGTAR
Assay: human FLIPR-based M4 PAM assay (calcium mobilization, CHO-K1 cells with human M4 receptor and Gαqi5)
Conditions: inflection point (IP) of dose response curve, acetylcholine added at 20% of maximum response, read-out: M4 FLIPPR Hu IP
pEC50: −log10 of the molar value.
endpoint: pEC50

The following compounds have reported results that may help.
N#Cc1ccc(-c2cnc(CC(F)C3CC3)o2)c(-c2ccc3cccnc3c2)n1 (single isomer, unassigned) [Example 71] = 7.27
CC1(Cc2ncc(-c3cc4c(nc3-c3ccc5ccc(F)nc5c3)C(=O)CC4)o2)CCCC1 = 7.37
CC(Cc1ncc(-c2ccc(C#N)nc2-c2ccn3ccnc3c2)o1)C(F)(F)F (racemic) = 6.67
N#Cc1ccc(-c2cnc(CC(F)C3CC3)o2)c(-c2ccn3ccnc3c2)n1 (centres unmarked) [Example 84] = 7.52

I. N#Cc1ccc(-c2cnc(CCC(F)(F)F)o2)c(-c2ccn3ccnc3c2)n1
II. CC(C)(C)Cc1ncc(-c2ccc(C(F)F)nc2-c2ccn3ccnc3c2)o1
III. N#Cc1ccc(-c2cnc(C[C@@H]3CC[C@H](F)C3)o2)c(-c2ccc3cccnc3c2)n1
Your job: order these 3 records by pEC50, ascending. Labels, requested order.
I, II, III
